test: PK; assay type: in vivo; conditions: in vivo; read-out: PK Vss
For each entry below, report its Vd value.
Give bare numbers, in L/kg.

# SMILES, VALUE KIND, MEASURED
rows = [
    ("OCCC/C(=C(/c1ccc(C2CCN(C3CC3)CC2)cc1)c1cccc(O)c1)c1ccccc1", "Vd", 4.6),
    ("CC(C)N1CCN(c2ccc(/C(=C(/CCCO)c3ccccc3)c3ccc(O)cc3)cc2)CC1", "Vd", 16),
]

Query block: Endpoint output: Vd of OCCC/C(=C(\c1ccc(O)cc1)c1ccc(C2CCN(C3CC3)CC2)cc1)c1ccccc1 . Value?
Result block: 12

* * *

test: Permeability (PAMPA); assay type: in vitro ADME; details: PAMPA
VALUE KIND: Papp (×10⁻⁶ cm/s)
Answers are plain numbers, in ×10⁻⁶ cm/s.

Items follow; give Papp for each.
1. OCCC/C(=C(\c1ccc(O)cc1)c1ccc(C2CCN(C3CC3)CC2)cc1)c1ccccc1
2. OCCC/C(=C(/c1ccc(C2CCN(C3CC3)CC2)cc1)c1cccc(O)c1)c1ccccc1
3. CC(C)N1CCN(c2ccc(/C(=C(/CCCO)c3ccccc3)c3ccc(O)cc3)cc2)CC1

Result block:
1: 0.35; 2: 0.014; 3: 0.46

* * *

For each entry below, report its LD50 value.
experiment: Single dose toxicity; settings: in vivo, read-out: Single dose Tax, LD50

# SMILES, MEASURED
measured = [
    ("CC(C)N1CCN(c2ccc(/C(=C(/CCCO)c3ccccc3)c3cccc(O)c3)cc2)CC1", "> 2000 mg/kg"),
]

Could you now consider this next compound?
Query block: Endpoint output: LD50 of CC(C)N1CCN(c2ccc(/C(=C(/CCCO)c3ccccc3)c3ccc(O)cc3)cc2)CC1 . Value?
Result block: > 2000 mg/kg

* * *

assay: PK; format: in vivo; conditions: po
Could you please mark criterion met for values of PK po AUC below 2 μMh and criterion not met for values at or above it?

Example entries and their recorded answers appear below.
# COMPOUND, CLASS NAME
measured = [
    ("CC(C)N1CCN(c2ccc(/C(=C(/CCCO)c3ccccc3)c3ccc(O)cc3)cc2)CC1", "criterion met"),
    ("OCCC/C(=C(\\c1ccc(O)cc1)c1ccc(C2CCN(C3CC3)CC2)cc1)c1ccccc1", "criterion not met"),
    ("CC(C)N1CCN(c2ccc(/C(=C(/CCCO)c3ccccc3)c3cccc(O)c3)cc2)CC1", "criterion not met"),
    ("OCCC/C(=C(/c1ccc(C2CCN(C3CC3)CC2)cc1)c1cccc(O)c1)c1ccccc1", "criterion not met"),
]

Query block: Bench note: check whether CN(C)CCOc1ccc(/C(=C(/CCCO)c2ccccc2)c2ccc(O)cc2)cc1 [GSK5182, reference compound] shows PK po AUC below 2 μMh
Result block: criterion met

* * *

Target: ERRγ (Homo sapiens, UniProt P62508)
Sequence (P62508 1-458): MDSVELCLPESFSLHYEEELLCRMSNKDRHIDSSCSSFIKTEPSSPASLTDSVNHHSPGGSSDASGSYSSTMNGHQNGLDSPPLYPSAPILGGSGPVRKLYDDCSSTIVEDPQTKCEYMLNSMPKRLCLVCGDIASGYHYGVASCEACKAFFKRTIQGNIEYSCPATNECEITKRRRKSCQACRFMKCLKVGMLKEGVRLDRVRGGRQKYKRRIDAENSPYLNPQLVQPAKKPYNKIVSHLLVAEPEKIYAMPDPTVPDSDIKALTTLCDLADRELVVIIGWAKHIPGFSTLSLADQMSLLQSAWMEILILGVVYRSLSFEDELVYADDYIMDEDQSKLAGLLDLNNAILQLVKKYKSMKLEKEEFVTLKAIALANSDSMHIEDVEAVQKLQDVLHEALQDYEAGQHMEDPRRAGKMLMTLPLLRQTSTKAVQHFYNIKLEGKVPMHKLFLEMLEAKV
Assay: ERRγ binding
VALUE KIND: pIC50
One number for each entry, as −log10 of the molar value.

Query block: Endpoint output: pIC50 of CC(C)N1CCN(c2ccc(/C(=C(/CCCO)c3ccccc3)c3ccc(O)cc3)cc2)CC1 . Value?
Result block: 7.40
